Reference source: paper PMC11054638

Listing: increase of permeability coefficient with probenecid compared to no inhibitor of selected compounds
System: oral mucosa epithelium in vitro model based on human cell line TR146
assay text: in vitro
run parameters: human, 240 min, 100 µM
A number alone suffices; assume fold.

Previously resolved entries follow.
O=C(O)Cc1ccccc1Nc1c(Cl)cccc1Cl : 1.83
CN1C(C(=O)Nc2ccccn2)=C(O)c2ccccc2S1(=O)=O : 1.19
Cc1ccc(-c2cc(C(F)(F)F)nn2-c2ccc(S(N)(=O)=O)cc2)cc1 : 13.63

Prompt: Give its increase of permeability coefficient with probenecid compared to no inhibitor value. Item: CC(C)Cc1ccc(C(C)C(=O)O)cc1 (stereo not shown)
Completion: 1.36

* * *

assay text: Transport study across oral mucosa Transwell model, apical to basolateral, 240 min
run parameters: human, with verapamil 100 µM, PC (permeability of cell), Celexocib study, Verapamil; mean ± SD
measured quantity: Papp A→B at 240 min (×10⁻⁶ cm/s)
Use ×10⁻⁶ cm/s as the unit, but write only the number.

Prompt: For the compound shown here, `Cc1ccc(-c2cc(C(F)(F)F)nn2-c2ccc(S(N)(=O)=O)cc2)cc1` , give the reported Papp A→B at 240 min.
Completion: 3.5

* * *

assay text: Transport study across oral mucosa Transwell model, apical to basolateral, 240 min
run parameters: human, with probenecid 100 µM, permeability coefficient, with 100 µM probenecid; mean ± SEM
Description: As soon as cells reached confluency, cultivation was switched from submerged to airlift and 1% Human Keratinocytes Growth Supplements (HKGS, Gibco, Thermofisher, Vienna, Austria, S0015) was added to the cultivation media on the basolateral compartment. […] Transepithelial electric resistance (TEER) was measured on day of experiment, as described in detail previously. […] First, TEER was measured in cultivation media on the day of experiment. […]
measured quantity: Papp A→B at 240 min, 100 µM (×10⁻⁶ cm/s)
Use ×10⁻⁶ cm/s as the unit, but write only the number.

Prompt: Request the reported Papp A→B at 240 min, 100 µM associated with Cc1ccc(-c2cc(C(F)(F)F)nn2-c2ccc(S(N)(=O)=O)cc2)cc1 [celecoxib]
Completion: 21.2

* * *

Tested on: oral mucosa epithelium in vitro model based on human cell line TR146
assay text: Transport study across oral mucosa Transwell model, apical to basolateral, 240 min
run parameters: Table S3; mean ± SD
measured quantity: Permeability coefficient without inflammation and inhibitor (µm/min)
Numbers only here, please. The scale is µm/min.

# annotated cases, reported Permeability coefficient without inflammation and inhibitor shown
CC(C)Cc1ccc(C(C)C(=O)O)cc1 (stereo not shown) : 5.77
CN1C(C(=O)Nc2ccccn2)=C(O)c2ccccc2S1(=O)=O : 4.86
Cc1ccc(-c2cc(C(F)(F)F)nn2-c2ccc(S(N)(=O)=O)cc2)cc1 : 0.44

# evaluate next
Prompt: // Permeability coefficient without inflammation and inhibitor lookup, key: `O=C(O)Cc1ccccc1Nc1c(Cl)cccc1Cl`
Completion: 3.64

* * *

assay text: Transport study across oral mucosa Transwell model, apical to basolateral, 240 min
run parameters: human, with verapamil 100 µM, PE (permeability of cell + blank), Piroxicam study, Verapamil; mean ± SD
Procedure: As soon as cells reached confluency, cultivation was switched from submerged to airlift and 1% Human Keratinocytes Growth Supplements (HKGS, Gibco, Thermofisher, Vienna, Austria, S0015) was added to the cultivation media on the basolateral compartment. […] Transepithelial electric resistance (TEER) was measured on day of experiment, as described in detail previously. […] First, TEER was measured in cultivation media on the day of experiment. […]
measured quantity: Papp A→B at 240 min
Note: a bare number is incomplete; add the unit.

Prompt: Bench note: what Papp A→B at 240 min did `CN1C(C(=O)Nc2ccccn2)=C(O)c2ccccc2S1(=O)=O` show?
Completion: 5.12 ×10⁻⁶ cm/s

* * *

assay text: Transport study across oral mucosa Transwell model, apical to basolateral, 240 min
run parameters: human, with probenecid 100 µM, PE (permeability of cell + blank), Piroxicam study, Probenecid; mean ± SD
measured quantity: Papp A→B at 240 min (nm/s)
Answer with a number only, understood to be in nm/s.

Prompt: Recorded Papp A→B at 240 min of `CN1C(C(=O)Nc2ccccn2)=C(O)c2ccccc2S1(=O)=O` , please.
Completion: 45.2

* * *

assay text: in vitro
run parameters: human, not told, permeability coefficient, cell layers pre-treated with cytokines plus ibuprofen 48 h; 4 h transport; without probenecid
measured quantity: Papp A→B at 4 h (×10⁻⁶ cm/s)
Kindly provide the numeric value in ×10⁻⁶ cm/s only, without the unit symbol.

Prompt: Look up Papp A→B at 4 h: CC(C)Cc1ccc(C(C)C(=O)O)cc1 (stereo not shown)
Completion: 35.1

* * *

assay text: in vitro
run parameters: human, not told, permeability coefficient, control cell layers; 4 h transport after 48 h; without probenecid
measured quantity: Papp A→B at 4 h
Param answer (str): number followed by unit.

Prompt: Field request: Papp A→B at 4 h | item: CC(C)Cc1ccc(C(C)C(=O)O)cc1 (stereo not shown)
Completion: 24 ×10⁻⁶ cm/s

* * *

assay text: Transport study across oral mucosa Transwell model, apical to basolateral, 240 min
run parameters: human, PC (permeability of cell), Piroxicam study, w/o Inhibitor; mean ± SD
measured quantity: Papp A→B at 240 min (×10⁻⁶ cm/s)
Please respond with the number in ×10⁻⁶ cm/s and leave the unit unwritten.

Prompt: Papp A→B at 240 min lookup needed for `CN1C(C(=O)Nc2ccccn2)=C(O)c2ccccc2S1(=O)=O` , thanks.
Completion: 8.1

* * *

assay text: Transport study across oral mucosa Transwell model, apical to basolateral, 240 min
run parameters: human, with verapamil 100 µM, PC (permeability of cell), Piroxicam study, Verapamil; mean ± SD
measured quantity: Papp A→B at 240 min

Prompt: Which Papp A→B at 240 min is reported for this compound? `CN1C(C(=O)Nc2ccccn2)=C(O)c2ccccc2S1(=O)=O`
Completion: 10 ×10⁻⁶ cm/s

* * *

assay text: Transport study across oral mucosa Transwell model, apical to basolateral, 240 min
run parameters: human, with probenecid 100 µM, PC (permeability of cell), Celexocib study, Probenecid; mean ± SD
measured quantity: Papp A→B at 240 min (×10⁻⁶ cm/s)
Answer with a number only, understood to be in ×10⁻⁶ cm/s.

Prompt: Bench note: what Papp A→B at 240 min did Cc1ccc(-c2cc(C(F)(F)F)nn2-c2ccc(S(N)(=O)=O)cc2)cc1 [celecoxib] show?
Completion: 10.1

* * *

Test system: oral mucosa epithelium in vitro model based on human cell line TR146
assay text: Transport study across oral mucosa Transwell model, apical to basolateral, 240 min
run parameters: with 100 µM verapamil; mean ± SEM
Recorded permeability coefficient by entry
Please state the figure in µm/min; there is no need to write the unit.

CC(C)Cc1ccc(C(C)C(=O)O)cc1 (stereo not shown) [ibuprofen] : 7.13

Prompt: Need permeability coefficient, item CN1C(C(=O)Nc2ccccn2)=C(O)c2ccccc2S1(=O)=O [piroxicam]
Completion: 6.00

Prompt: Report permeability coefficient for O=C(O)Cc1ccccc1Nc1c(Cl)cccc1Cl [diclofenac] please.
Completion: 3.54

Prompt: Name the reported permeability coefficient value associated with the compound Cc1ccc(-c2cc(C(F)(F)F)nn2-c2ccc(S(N)(=O)=O)cc2)cc1 [celecoxib]
Completion: 2.10

* * *

assay text: Transport study across oral mucosa Transwell model, apical to basolateral, 240 min
run parameters: human, with probenecid 100 µM, PE (permeability of cell + blank), Celexocib study, Probenecid; mean ± SD
measured quantity: Papp A→B at 240 min (×10⁻⁶ cm/s)
Provide the reading as a plain figure in ×10⁻⁶ cm/s.

Prompt: I am curious: what Papp A→B at 240 min value has been reported for `Cc1ccc(-c2cc(C(F)(F)F)nn2-c2ccc(S(N)(=O)=O)cc2)cc1` ?
Completion: 2.72

* * *

assay text: in vitro
run parameters: human, not told, permeability coefficient, cell layers pre-treated with cytokines 48 h; 4 h transport; without probenecid
measured quantity: Papp A→B at 4 h
Don't forget the unit after the value.

Prompt: Name the reported Papp A→B at 4 h value associated with the compound CC(C)Cc1ccc(C(C)C(=O)O)cc1 (stereo not shown)
Completion: 33.4 ×10⁻⁶ cm/s

* * *

The entries below are paired with their reported Papp A→B at 240 min.
assay text: in vitro
run parameters: human, PE (permeability of cell + blank)
Number in ×10⁻⁶ cm/s, nothing else.

O=C(O)Cc1ccccc1Nc1c(Cl)cccc1Cl [diclofenac] : 3.43

Shifting focus to the compound that follows.
Prompt: Item CC(C)Cc1ccc(C(C)C(=O)O)cc1 (centres unmarked) [ibuprofen] has what recorded Papp A→B at 240 min?
Completion: 5.45

* * *

Listed next: entries and their corresponding cumulated concentration of NSAID in the basolateral compartment.
Test system: oral mucosa epithelium in vitro model based on human cell line TR146
assay text: in vitro
run parameters: human, 4 h, 100 µM
Description: As soon as cells reached confluency, cultivation was switched from submerged to airlift and 1% Human Keratinocytes Growth Supplements (HKGS, Gibco, Thermofisher, Vienna, Austria, S0015) was added to the cultivation media on the basolateral compartment. […] Transepithelial electric resistance (TEER) was measured on day of experiment, as described in detail previously. […] First, TEER was measured in cultivation media on the day of experiment. […]
Your answer should be a plain number; it is taken to be in nmol/mm^2.

See these solved cases before continuing.
Cc1ccc(-c2cc(C(F)(F)F)nn2-c2ccc(S(N)(=O)=O)cc2)cc1 : 0.0071
CN1C(C(=O)Nc2ccccn2)=C(O)c2ccccc2S1(=O)=O : 0.055
O=C(O)Cc1ccccc1Nc1c(Cl)cccc1Cl : 0.043

# input for lookup
Prompt: Any idea what cumulated concentration of NSAID in the basolateral compartment was measured for CC(C)Cc1ccc(C(C)C(=O)O)cc1 (stereo not shown) ?
Completion: 0.067
